Listed below: growth inhibition values for each entry.
# method-notes: antimalarial activity against Dd2 strain (AID 2302);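 note: 0% = DMSO untreated growth and 100% = chloroquine plus artemisinin killed control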
# condition-context: P. falciparum Dd2 in RBCs, LDH growth readout, 72 h; at 2 µM; active compounds read high
Reply with just the number (in %).

INSERT INTO assay_data (compound, measured_metric, recorded_result) VALUES
  ('O=C(Nc1cccc(CN2CCCN(CCc3ccccc3)CC2)c1)c1ccc(Cl)c(Cl)c1', 'growth inhibition', 15),
  ('COc1cc(N(C)Cc2cnc3nc(N)nc(N)c3n2)cc(OC)c1OC', 'growth inhibition', 2),
  ('CC1(C)N=C(N)N=C(N)N1OCCCOc1cc(Cl)cc(Cl)c1', 'growth inhibition', 97),
  ('O=[N+]([O-])c1cccc(C=NNc2ccnc3cc(F)ccc23)c1', 'growth inhibition', 100);

## Input Value lookup for growth inhibition; key = CCN(CC)CCN(Cc1ccc(-c2ccc(C(F)(F)F)cc2)cc1)C(=O)Cn1nc(-c2ccc(C(F)(F)F)cc2)ccc1=O
## Output 83

## Input Value lookup for growth inhibition; key = NC(N)=NN=Cc1ccc2c(ccc3ccccc32)c1
## Output 68

## Input Value lookup for growth inhibition; key = N#Cc1c(-c2ccccc2)cn2c1[nH]c(=O)c1ccccc12
## Output 95

## Input Value lookup for growth inhibition; key = CCCc1ccc(NC(=O)c2ccc(CN3CCCN(Cc4ccc(OC)cc4)CC3)cc2)cc1
## Output -4

## Input Value lookup for growth inhibition; key = CCCC(=O)Nc1ccc(OCCCN(Cc2cccc(C(F)(F)F)c2)c2ccc(C#N)c(C(F)(F)F)c2)cc1
## Output 89

## Input Value lookup for growth inhibition; key = COc1ccc(CNC2CCN(C)CC2)cc1-c1ccc(S(=O)(=O)NC2CCC2)c(C)c1
## Output 96

## Input Value lookup for growth inhibition; key = COc1c(C(=O)NC2CCN(Cc3ccccc3)C2)cnc2ccccc12 (stereo not drawn)
## Output 12

## Input Value lookup for growth inhibition; key = CN(/N=C/c1ccc(Cl)cc1)c1nc(NCCc2ccc(O)cc2)nc(N2CCNCC2)n1
## Output 97

## Input Value lookup for growth inhibition; key = COc1ccc2c(c1)nc(CN=C(N)N)n2Cc1ccc(Cl)cc1
## Output 99

----------
Listed below: inhibition values for each entry.
# method-notes: HepG2 cytotoxicity, primary screen, cytotoxicity control for P. falciparum antimalarial project, cell-based, ATP luminescence (AID 2303);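 note: 0% = DMSO wells and 100% = digitonin-killed cells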
# condition-context: HepG2 viability, 24-48 h, at 10 µM, active compounds read high
The source made the active and inactive calls.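 How the source made its calls: active means inhibition above 50%; inactive means the rest.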

INSERT INTO results (compound, measured_metric, recorded_result) VALUES
  ('COC(=O)c1cc(C(O)CNC(C)CCCc2ccccc2)ccc1O (centres undefined)', 'inhibition', '17% (inactive)'),
  ('CCOc1c(OC)ccc2c1CCN(CCN1CCC(NC(=O)c3ccc(-c4cccc(C(F)(F)F)c4C(F)(F)F)cc3)CC1)C2', 'inhibition', '30% (inactive)'),
  ('CC(C)CC(=O)NC1CCN(Cc2c(-c3cccs3)nc3ccccc3c2C(=O)N[C@@H](C)C2CCCCC2)CC1', 'inhibition', '-3% (inactive)');

In the following, a different compound is considered.
## Input Value lookup for inhibition; key = COc1ccc(-c2nc(NC(=O)Cc3cccc(OC)c3)sc2C)cc1
## Output 1% (inactive)

----------
Listed below: growth inhibition values for each entry.
# method-notes: antimalarial activity against Dd2 strain (AID 2302);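 note: 0% = DMSO untreated growth and 100% = chloroquine plus artemisinin killed control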
# condition-context: P. falciparum Dd2 in RBCs, LDH growth readout, 72 h; at 2 µM; active compounds read high
The source made the active and inactive calls.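 The calls were made as follows: active = growth inhibition above 50% at the single 2 µM test dose, taken to imply half-maximal potency below 2 µM; inactive = the rest.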

Past entries and their recorded results:
INSERT INTO measurements (molecule, recorded_result) VALUES
  ('OC(CNCc1ccco1)Cn1c2ccc(Br)cc2c2cc(Br)ccc21 (stereo not given)', '72% (active)'),
  ('Cn1c(N)c(C(=O)CSc2ncc(-c3ccc(F)cc3)n2Cc2ccccc2)c(=O)n(C)c1=O', '66% (active)'),
  ('COc1ccc2c(c1)OC(C)(C)CC2=NOS(=O)(=O)c1ccc(C)cc1', '12% (inactive)'),
  ('O=C(NCc1cccc(F)c1)Nc1cccc(-c2cccc(-c3nc4ccccc4[nH]3)c2)c1', '27% (inactive)');

In the following, a different molecule is considered.
## Input Value lookup for growth inhibition; key = FC(F)(F)c1ccc(-c2cncc(-c3ccc(C(F)(F)F)cc3)n2)cc1
## Output 97% (active)

----------
Listed below: growth inhibition values for each entry.
# method-notes: antimalarial activity against Dd2 strain (AID 2302);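 note: 0% = DMSO untreated growth and 100% = chloroquine plus artemisinin killed control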
# condition-context: P. falciparum Dd2 in RBCs, LDH growth readout, 72 h; at 2 µM; active compounds read high
Reply with just the number (in %).

Past entries and their recorded results:
INSERT INTO measurements (compound, recorded_result) VALUES
  ('Cc1cccc2[nH]c(-c3ccc(-c4ccc(CNCc5cccc(N)c5)cc4)cc3)nc12', 84),
  ('OC(CNCc1cccc(Oc2ccc(Cl)cc2)c1)c1cc(C(F)(F)F)cc(C(F)(F)F)c1 (stereo not given)', 101),
  ('O=C(NCc1cccs1)[C@H](Cc1ccccc1)Nc1ccnc(NCCc2ccc(F)cc2)n1', 52);

## Input Value lookup for growth inhibition; key = Cc1nc(-c2cccc3c(NC(=O)Nc4ccc5nccc(N6CCN(C)CC6)c5c4)cccc23)no1
## Output 84

## Input Value lookup for growth inhibition; key = Cc1cc(NC(=O)Nc2cccc(C#N)c2)c2ccccc2n1
## Output 82

## Input Value lookup for growth inhibition; key = Cc1cc(NCCC(=O)NCc2cccc(F)c2)nc(Nc2ccccc2)n1
## Output 15

----------
# method-notes: inhibition of 3D7 malaria parasite growth – strain 3D7 (AID 2306);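 note: 0% = DMSO wells and 100% = chloroquine plus artemisinin control wells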
# condition-context: P. falciparum 3D7 erythrocytic growth, LDH absorbance, 72 h; at 2 µM; active compounds read high
measured-metric: growth inhibition (%)
Reply with just the number (in %).

INSERT INTO measurements (mol, recorded_result) VALUES
  ('CCCc1ccc(N2C(N)=NC(N)=NC2(C)C)cc1', 94),
  ('Cc1cccc2[nH]c(-c3cccc(-c4cccc(NC(=O)c5cccnc5)c4)c3)nc12', 101),
  ('CN1CCN(Cc2ccc(-c3ccc4c(Nc5ccc(Oc6ccccc6)cc5)ccnc4c3)o2)CC1', 99);

In the following, a different compound is considered.
## Input Value lookup for growth inhibition; key = CC1(C)N=C(N)N=C(N)N1c1cc(Cl)c(Cl)c(Cl)c1
## Output 93

----------
# method-notes: inhibition of 3D7 malaria parasite growth – strain 3D7 (AID 2306);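 note: 0% = DMSO wells and 100% = chloroquine plus artemisinin control wells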
# condition-context: P. falciparum 3D7 erythrocytic growth, LDH absorbance, 72 h; at 2 µM; active compounds read high
Listed below: growth inhibition values for each entry.
Reply with just the number (in %).

Past entries and their recorded results:
INSERT INTO results (compound, measured_metric, units_label, recorded_result) VALUES
  ('O=C(CCc1cnc[nH]1)Nc1ccc(-c2cccc(-c3nc4ccccc4[nH]3)c2)cc1', 'growth inhibition', '%', 101),
  ('CCCN1CCC(c2c[nH]c3ccc(NC(=O)Nc4cccc(Cl)c4Cl)cc23)CC1', 'growth inhibition', '%', 100),
  ('CN(CCN)Cc1cccc(-c2cccc(-c3nc4ccc(F)cc4[nH]3)c2)c1', 'growth inhibition', '%', 95),
  ('Nc1c2c(nc3ccc(Oc4ccc(Cl)cc4)cc13)CCCC2', 'growth inhibition', '%', 100),
  ('Cc1[nH]c(C)c(-c2ccc(Oc3ccc(Cl)cc3Cl)cc2)c(=O)c1Br', 'growth inhibition', '%', 98);

## Input Value lookup for growth inhibition; key = CC(Cc1ccc(OCC(=O)NCC2CCN(CCc3cccc(Cl)c3)CC2)cc1)NCCc1cccc(Cl)c1 (stereo not given)
## Output 96

## Input Value lookup for growth inhibition; key = CCC(CO)NCC(O)Cn1c2ccc(Br)cc2c2cc(Br)ccc21 (stereo not given)
## Output 100

## Input Value lookup for growth inhibition; key = CNC(=O)/C=C/c1cc(NC(=O)Nc2ccnc3c(Br)cccc23)ccc1OC
## Output 95

## Input Value lookup for growth inhibition; key = CCN(CC)CCN(Cc1ccc(-c2ccc(C(F)(F)F)cc2)cc1)C(=O)Cn1c(CCc2cccc(F)c2F)nc(=O)c2cccnc21
## Output 101

## Input Value lookup for growth inhibition; key = CCOC(=O)C1=C(C)N=c2sc(=Cc3cc(Cl)ccc3O)c(=O)n2C1c1cc(OC)c(OC)cc1Br (stereo not given)
## Output 97

## Input Value lookup for growth inhibition; key = Cc1ccc(C)c(S(=O)(=O)Nc2ccc(Br)cc2C(=O)Nc2cccc(C(F)(F)F)c2)c1
## Output 81

## Input Value lookup for growth inhibition; key = O=C(Nc1ccsc1C(=O)NC1CCCCC1)c1ccc(F)cc1
## Output 86

## Input Value lookup for growth inhibition; key = Cc1cccc(C(=O)Nc2ccnc(N3CCCN(Cc4cccc(O)c4)CC3)c2)c1
## Output 84

## Input Value lookup for growth inhibition; key = CCC(C)NC(=O)CN1CN(c2ccccc2)C2(CCN(C(=O)c3ccc4ccccc4c3)CC2)C1=O (stereo not given)
## Output 95

## Input Value lookup for growth inhibition; key = CC(C)Cc1cn(-c2nc(-c3nc4ccccc4[nH]3)cs2)c2cc(Cl)ccc12
## Output 99

## Input Value lookup for growth inhibition; key = COc1cc(N)cc2sc(N)nc12
## Output 99

## Input Value lookup for growth inhibition; key = CC(C)(C)c1ccc(CN2CCC(CNC(=O)c3cc(-c4ccccc4)nc4ccccc34)CC2)cc1
## Output 89

## Input Value lookup for growth inhibition; key = CN(C)CCNCc1ccc(-c2ccc(-c3nc4ccc(F)cc4[nH]3)cc2)cc1
## Output 101

## Input Value lookup for growth inhibition; key = Cc1nc(-c2ccc(-c3ccc(C(=O)Nc4ccc(I)c(OCC5CCCN5C)c4)cc3)c(C)c2)no1 (stereo not given)
## Output 97

## Input Value lookup for growth inhibition; key = CN1CCC(C(=O)N(Cc2ccc(-c3ccc(CNCCc4ccccc4)cn3)cc2)C2Cc3ccccc3C2)CC1
## Output 88

## Input Value lookup for growth inhibition; key = c1cc2nc(CCc3nc4ccc(C5=N[C@H]6CCCC[C@H]6N5)cc4[nH]3)[nH]c2cc1C1=N[C@@H]2CCCC[C@@H]2N1
## Output 93

## Input Value lookup for growth inhibition; key = Cc1cc(-c2ccc3c(c2)CC[C@@H](N[C@@H](C)c2ccccc2)C3)cnc1N
## Output 98

## Input Value lookup for growth inhibition; key = O=[N+]([O-])c1ccc(NC(=NC2CCCc3ccccc32)Nc2ccccc2Br)c(O)c1 (stereo not given)
## Output 98

## Input Value lookup for growth inhibition; key = CC(C)C[C@@H](/C=N/N1CC(=O)NC1=O)NC(=O)[C@H](CC(C)C)NC(=O)c1ccc(OCCN2CCOCC2)cc1
## Output 94

## Input Value lookup for growth inhibition; key = O=C(NCc1ccccc1)c1ncn(CCCN2CCC(N3CCCC3)CC2)c1-c1ccc(Cl)c(Cl)c1
## Output 89

## Input Value lookup for growth inhibition; key = CCCNCc1ccc(-c2ccc(CN(CCOC)C(=O)c3ccco3)cc2)nc1
## Output 91

## Input Value lookup for growth inhibition; key = CC1=C(C(=O)Nc2ccc(Cl)cc2)C(c2ccncc2)n2nc(C(F)(F)F)nc2N1 (stereo not given)
## Output 87

## Input Value lookup for growth inhibition; key = Cn1nccc1C(=O)NCCNCc1cccc(-c2cccc(-c3nc4ccc(C(F)(F)F)cc4[nH]3)c2)c1
## Output 102

## Input Value lookup for growth inhibition; key = COc1cc(Cc2cnc(N)nc2N)ccc1OCc1ccc(NC(C)=O)cc1
## Output 98

## Input Value lookup for growth inhibition; key = Cc1cc(NCCc2ccccc2)nc(/N=C(\N)Nc2ccc(Cl)cc2)n1
## Output 102
